target.desc: T1, human B7-H3 (Homo sapiens, UniProt Q5ZPR3)
T1 construct: His tag (6xHis) (C)
T1 sequence (Q5ZPR3 with tags, fused parts or gaps): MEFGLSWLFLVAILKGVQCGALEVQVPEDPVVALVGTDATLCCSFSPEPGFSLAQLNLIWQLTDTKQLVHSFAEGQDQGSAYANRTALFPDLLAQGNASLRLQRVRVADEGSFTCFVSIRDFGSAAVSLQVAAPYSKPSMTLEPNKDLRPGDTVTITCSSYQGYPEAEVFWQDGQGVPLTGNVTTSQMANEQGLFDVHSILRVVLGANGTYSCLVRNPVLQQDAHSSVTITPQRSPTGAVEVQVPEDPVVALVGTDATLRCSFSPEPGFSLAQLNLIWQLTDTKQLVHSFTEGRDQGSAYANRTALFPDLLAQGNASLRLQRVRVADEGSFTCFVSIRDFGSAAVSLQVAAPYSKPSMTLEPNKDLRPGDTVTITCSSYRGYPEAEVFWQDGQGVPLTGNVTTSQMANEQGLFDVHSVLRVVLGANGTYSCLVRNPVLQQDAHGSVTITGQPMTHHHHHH
assay.explanation: Epitope grouping by pair-wise Biacore SPR binding
condition.info: simultaneous binding assay, FIG. 1
experimental.readout: epitope grouping

>  <molecule>
Ab12: mouse hybridoma anti-B7-H3 monoclonal antibody, mouse IgG1/k (antibody, V domains shown) VH: EVQLVESGGGLVKPGGSLKLSCAASGFTFSSYAMSWVRQTPEKRLEWVATISSGTNYTYYPDSVKGRFTISRDNAKNTLYLQMTSLRSEDTAMYYCARQGRYSWIAYWGQGTLVTVSA VL: DIVLTQSPASLAVSLGQRATISCRASKSVSTSDYSYMHWNQQKPGQPPKLLIYLASNLESGVPARFSGSGSGTDFTLNIHPVEEEDAATYYCQHSRELLTFGAGTKLELK

>  <result.value>
ambiguous

$$$$
>  <molecule>
Ab11: mouse hybridoma anti-B7-H3 monoclonal antibody, mouse IgG1/k (antibody, V domains shown) VH: EVKLVESGGGLVQPGGSLRLSCATSGFTFTNYYMSWVRQPPGKALEWLGFIRNKANDYTTEYSASVKGRFTISRDNSQSILYLQMNTLRAEDSATYYCARESPGNPFAYWGQGTLVTVSA VL: DIVMTQSPSSLTVTAGEKVTMTCKSSQSLLNSGTQKNFLTWYQQKPGQPPKLLIYWASTRESGVPDRFTGSGSGTDFTLTISSVQAEDLAVYFCQNDYIYPLTFGAGTKLELK

>  <result.value>
ambiguous

$$$$
